human PDE4B isozyme (Homo sapiens, UniProt Q07343): recorded IC50 for assorted molecules
Sequence (Q07343 whole entry): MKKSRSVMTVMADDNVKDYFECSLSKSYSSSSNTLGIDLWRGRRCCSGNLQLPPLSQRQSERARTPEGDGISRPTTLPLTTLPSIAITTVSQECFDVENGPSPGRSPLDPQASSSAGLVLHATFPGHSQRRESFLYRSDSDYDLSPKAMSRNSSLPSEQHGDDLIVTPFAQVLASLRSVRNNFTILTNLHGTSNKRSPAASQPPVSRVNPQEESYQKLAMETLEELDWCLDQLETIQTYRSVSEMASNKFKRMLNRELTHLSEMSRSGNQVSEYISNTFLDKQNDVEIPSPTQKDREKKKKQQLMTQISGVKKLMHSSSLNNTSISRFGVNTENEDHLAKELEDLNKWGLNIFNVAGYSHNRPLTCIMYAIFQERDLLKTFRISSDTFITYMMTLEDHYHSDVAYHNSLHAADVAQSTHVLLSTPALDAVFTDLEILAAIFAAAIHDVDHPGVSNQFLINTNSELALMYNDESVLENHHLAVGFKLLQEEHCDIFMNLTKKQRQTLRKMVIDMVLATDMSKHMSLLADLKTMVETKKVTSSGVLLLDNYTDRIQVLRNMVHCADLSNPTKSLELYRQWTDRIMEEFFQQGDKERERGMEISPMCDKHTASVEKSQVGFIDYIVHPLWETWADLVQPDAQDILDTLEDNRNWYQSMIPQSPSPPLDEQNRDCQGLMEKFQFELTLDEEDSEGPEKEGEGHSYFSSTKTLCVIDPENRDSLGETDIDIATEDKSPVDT
result-type: IC50

- Nc1ccc(Cc2cc3scnc3c(-c3cccc(Cl)c3)c2F)cc1: < 5 µM
- Nc1nc2c(-c3ccc4c(c3)OCO4)nc(Cc3ccc(F)cc3)nc2s1: < 5 µM
- COc1ccc(Cc2cc3scnc3c(-c3cccc(Cl)c3)c2F)cn1: < 5 µM
- CN(C)c1ccc(Cc2cc(-c3cccc(Cl)c3)c3ncsc3c2)cn1: < 5 µM
- Cc1nc2c(-c3cccc(Cl)c3)cc(Cc3ccc(NC(N)=O)cc3)cc2o1: < 5 µM
- Nc1nc2c(-c3cccc([N+](=O)[O-])c3)cc(Cn3ccnc3)cc2s1: < 5 µM
- CCNC(=O)Nc1ccc(Cc2cc3scnc3c(-c3cccc(Cl)c3)c2F)cc1: < 5 µM
- CC(=O)c1cccc(-c2cc(Cn3cccn3)cc3sc(N)nc23)c1: < 5 µM
- Nc1nc2c(-c3ccc4c(c3)OCO4)cc(C(O)c3ccc(F)cc3)cc2s1 (centres unmarked): < 5 µM
- Nc1nc2c(-c3cccc([N+](=O)[O-])c3)cc(Cn3cccn3)cc2s1: < 5 µM
- NC(=O)Nc1ccc(Cc2cc(-c3cccc(Cl)c3)c3ncsc3c2)cc1: < 5 µM
- O=C1CNCCN1Cc1cc2scnc2c(-c2cccc(Cl)c2)c1F: < 5 µM
- CCOC(=O)N1CCN(Cc2cc3scnc3c(-c3cccc(Cl)c3)c2F)CC1: < 5 µM
- O=C1CCCN1Cc1cc2scnc2c(-c2cccc(Cl)c2)c1F: < 5 µM
- Fc1c(CN2CCNCC2)cc2scnc2c1-c1cccc(Cl)c1: 5 to 20 µM
- CCOC(=O)NC1CCN(Cc2cc3scnc3c(-c3cccc(Cl)c3)c2F)CC1: 5 to 20 µM
- Oc1cccc(Cc2cc3scnc3c(-c3cccc(Cl)c3)c2F)c1: < 5 µM
- Nc1ccc(Cc2cc3scnc3c(-c3cccc(Cl)c3)c2F)cn1: < 5 µM
- NC(=O)N1CCN(Cc2cc3scnc3c(-c3cccc(Cl)c3)c2F)CC1: < 5 µM
- CS(=O)(=O)Nc1ccc(Cc2cc(-c3cccc(Cl)c3)c3nc(N)sc3c2)cc1: 5 to 20 µM
